- EXPERIMENT_SUMMARY: Metabolic stability in human liver microsomes
- Assay type: in vitro ADME
- EXPERIMENTAL_SETUP: human liver microsomes 0.5 mg/mL, 2 μM compound; remaining percentage of parent at 60 min
VALUE_TYPE: Human microsome % 60 min (%)

A selection of reference data follows.
- COc1cccc(-c2cc(COC(C)(C)C(=O)O)nn2-c2ccccc2Cl)c1: 80
- COc1cccc(-c2cc(COC(C)(C)C(=O)O)nn2Cc2ccccc2OC)c1: 85
- COc1csc(-c2cc(COC(C)(C)C(=O)O)nn2Cc2ccccc2Cl)c1: 78
- CC(C)(OCc1cc(-c2cccc(OC3CC3)c2)n(Cc2ccccc2Cl)n1)C(=O)O: 89
- COc1cc(-c2cc(COC(C)(C)C(=O)O)nn2Cc2ccccc2Cl)cs1: 73

I: CC(C)Oc1cccc(-c2cc(COC(C)(C)C(=O)O)nn2Cc2ccccc2Cl)c1
II: CC(C)COc1cccc(-c2cc(COC(C)(C)C(=O)O)nn2Cc2ccccc2Cl)c1
Q) Which has the smaller recorded Human microsome % 60 min, I or II ? // return label of chosen record
A) II

The measurements presented in this section are drawn from patent US10202350B2.
